Tested on: MDA-MB-435
test_method_notes: NCI tumour cell line growth inhibition, 48 h
Please go through the items and note down their TGI.

A selection of reference data follows.
Exam item: Give a short answer stating reported TGI for `CC1=C2[C@@H](CC1)[C@]1(C)O[C@@](C(C)C)(C[C@H]1OC(=O)[C@H](C)O)[C@H]2OC(=O)/C=C/c1ccccc1` .
Marked response: 30.9 µM

Exam item: Give a short answer stating reported TGI for `CN=C1NC(=O)/C(=C/c2ccc3ncccc3c2)S1` .
Marked response: > 25 µM

Exam item: Give a short answer stating reported TGI for `CC1=CC(=O)N(n2c(C)n[nH]c2=O)C1=O` .
Marked response: > 100 µM

Exam item: Give a short answer stating reported TGI for `CCN(CCCN(CC)C(=O)N[C@@H](Cc1ccccc1)C(=O)NC)C(=O)N[C@@H](Cc1ccccc1)C(=O)NC` .
Marked response: > 100 µM

Exam item: Give a short answer stating reported TGI for `Cc1nc(Cl)c(CBr)c(Cl)n1` .
Marked response: 3.3 µM

Exam item: Give a short answer stating reported TGI for `Nc1ncnc2c1ncn2C(=O)NC12CC3CC(CC(C3)C1)C2` .
Marked response: > 100 µM

Exam item: Give a short answer stating reported TGI for `CC1(C)N=C(N)N=C(N)N1c1ccc(CCCCc2ccc(S(=O)(=O)F)cc2Cl)c(Cl)c1` .
Marked response: > 500 µM

Exam item: Give a short answer stating reported TGI for `C(=Nc1ccc(-c2nc3ccccc3s2)cc1)c1ccco1` .
Marked response: > 100 µM

Exam item: Give a short answer stating reported TGI for COc1ccc(CN2CCCC(C(=O)c3ccc(C(F)(F)F)cc3)C2)c(O)c1 (stereo not drawn) .
Marked response: 83.3 µM

Exam item: Give a short answer stating reported TGI for `O=C(O)Cc1c[nH]c2ccc(F)cc12` .
Marked response: > 100 µM

Batch: TGI for all items listed.
1. CN1CN(c2ccccc2)C2(CCN(CCCC3(c4cccs4)OCCO3)CC2)C1=O
2. O=C1N[C@@H]2c3c(csc3Br)C(=O)[C@@H]2O1

Marked response:
1. > 100 µM
2. 46.9 µM

Exam item: Give a short answer stating reported TGI for `NNC(=O)c1cnn(-c2ccnc3c(C(F)(F)F)cccc23)c1N` .
Marked response: > 100 µM

###

System: HL-60(TB) leukemia
test_method_notes: NCI tumour cell line growth inhibition, 48 h
Please go through the items and note down their TGI.
Answers are plain numbers, in µM.

Exam item: Give a short answer stating reported TGI for `O=[N+]([O-])c1ccc(NSc2ccccc2)cc1` .
Marked response: 47.5

Now turn to the next compound.
Exam item: Give a short answer stating reported TGI for `Clc1cccc(NC=Nc2ccc(-c3nc4ccccc4s3)cc2)c1` .
Marked response: 27.3

###

Tested on: UACC-257 melanoma
test_method_notes: NCI tumour cell line growth inhibition, 48 h
property: GI50

A selection of reference data follows.
Exam item: Give a short answer stating reported GI50 for `O=[n+]1c(CBr)c(CBr)n([O-])c2ccccc21` .
Marked response: 13.6 µM

Exam item: Give a short answer stating reported GI50 for `COC(=O)c1c2c(c(C)[n+]([O-])c1C)C(=O)C=CC2=O` .
Marked response: 1.57 µM

Exam item: Give a short answer stating reported GI50 for `COc1ccc(CNC(=O)COc2ccc(/C=N/Nc3nc4ccccc4s3)cc2)cc1` .
Marked response: 4.2 µM

Now turn to the next compound.
Exam item: Give a short answer stating reported GI50 for `O=C1CSC(N2CCN(c3cccc(Cl)c3)CC2)=N1` .
Marked response: > 100 µM

###

Test system: SN12C renal
test_method_notes: NCI tumour cell line growth inhibition, 48 h; in the data active = GI50 below about 0.43 µM; inactive = the rest
Where a SMILES comes first, the peptide text is derived from it. [ ]: non-standard residue; d: D form. The star is where a group is joined. Bn2Val = CC(C)[C@@H](C(=O)*)N(Cc1ccccc1)Cc1ccccc1; NH(3,4-diMeO-benzyl) = COc1ccc(CN*)cc1OC; NMeV = CN[C@H](C(=O)O)C(C)C; dNMeA = CN[C@H](C)C(=O)O
Select the correct class. Options are 1 (yes) = active, 0 (no) = inactive and nothing else.

Worked examples follow.
Exam item: Dear all, I need the recorded test outcome for `O=C(Cc1ccc(/C=C/C(=O)c2ncc[nH]2)cc1)Nc1ccc(Cl)cc1` , thank you.
Marked response: 0 (no)

Exam item: Dear all, I need the recorded test outcome for `COc1cc([C@@H]2c3cc4c(cc3C[C@H]3COC(=O)[C@@H]32)OCO4)cc(OC)c1OC` , thank you.
Marked response: 1 (yes)

Exam item: Dear all, I need the recorded test outcome for `S=C1NCCN1C1=Nc2ccccc2CO1` , thank you.
Marked response: 0 (no)

Exam item: Dear all, I need the recorded test outcome for `NNC(=O)c1cnn(-c2ccnc3c(C(F)(F)F)cccc23)c1N` , thank you.
Marked response: 0 (no)

Exam item: Dear all, I need the recorded test outcome for COc1ccc(CN2CCCC(C(=O)c3ccc(C(F)(F)F)cc3)C2)c(O)c1 (stereo not given) , thank you.
Marked response: 0 (no)

---
Exam item: Dear all, I need the recorded test outcome for COc1ccc(CNC(=O)[C@@H](C)N(C)C(=O)[C@@H]2CCCN2C(=O)[C@H](C(C)C)N(C)C(=O)[C@@H](NC(=O)[C@H](C(C)C)N(Cc2ccccc2)Cc2ccccc2)C(C)C)cc1OC (Bn2Val-V[NMeV]P[dNMeA]-{NH(3,4-diMeO-benzyl)}) , thank you.
Marked response: 0 (no)

Exam item: Dear all, I need the recorded test outcome for `Clc1cccc(NC=Nc2ccc(-c3nc4ccccc4s3)cc2)c1` , thank you.
Marked response: 0 (no)

Exam item: Dear all, I need the recorded test outcome for `CC(=O)c1ccc(N(/C=C/C(=O)C(F)(F)F)CC(=O)c2ccc(Cl)c(Cl)c2)cc1` , thank you.
Marked response: 0 (no)

Exam item: Dear all, I need the recorded test outcome for `CC1=C2[C@@H](CC1)[C@]1(C)O[C@@](C(C)C)(C[C@H]1OC(=O)[C@H](C)O)[C@H]2OC(=O)/C=C/c1ccccc1` , thank you.
Marked response: 0 (no)

Exam item: Dear all, I need the recorded test outcome for `COc1cc2c(c(OC)c1OC)-c1ccc(NCc3ccccc3)c(=O)cc1[C@@H](NC(C)=O)CC2` , thank you.
Marked response: 0 (no)

###

System: A498 renal
test_method_notes: NCI tumour cell line growth inhibition, 48 h
Would you mind labelling by TGI? At or over 6 µM is yes, under is no.

Exam item: Does the reported TGI for `NS(=O)(=O)c1ccc(-n2nc(-c3ccc(Br)cc3)ccc2=O)cc1` fall at or above the 6 µM mark?
Marked response: yes

Exam item: Does the reported TGI for `O=C1/C(=C/c2ccc(F)cc2)CNC/C1=C\c1ccc(F)cc1` fall at or above the 6 µM mark?
Marked response: no

Exam item: Does the reported TGI for `O=C1CSC(N2CCN(c3cccc(Cl)c3)CC2)=N1` fall at or above the 6 µM mark?
Marked response: yes

Exam item: Does the reported TGI for `Cc1cc(O)cc(O)c1N=Nc1ccc([N+](=O)[O-])cc1` fall at or above the 6 µM mark?
Marked response: yes

Exam item: Does the reported TGI for `CC(C)CCNC(=O)c1ccc(CNC(=O)/C=C/c2ccc(OCc3ccccc3)cc2)cc1` fall at or above the 6 µM mark?
Marked response: yes

---
Exam item: Does the reported TGI for `Cc1c(Cl)cccc1Nc1ncccc1C(=O)O` fall at or above the 6 µM mark?
Marked response: yes

Exam item: Does the reported TGI for `COC(=O)[C@@H](C)C[C@H](Cc1ccccc1)NC(=O)c1nc([C@@H](C[C@H](C(C)C)N(C)C(=O)[C@@H](NC(=O)[C@H]2CCCN2C)C(C)C)OC(C)=O)sc1C` fall at or above the 6 µM mark?
Marked response: no

Exam item: Does the reported TGI for `CC1=C2c3ccccc3N(C(=O)/C=C/C(=O)O)[C@H]2[C@H]2C(=O)OC(=O)[C@H]2C1` fall at or above the 6 µM mark?
Marked response: yes

Exam item: Does the reported TGI for N#Cc1cnn2ccn(C3OC(COC(=O)c4ccccc4)C(OC(=O)c4ccccc4)C3OC(=O)c3ccccc3)c12 (stereo not given) fall at or above the 6 µM mark?
Marked response: yes

Exam item: Does the reported TGI for `CN(O)C(=O)Cc1ccc(OCc2cccc(Cl)c2)cc1` fall at or above the 6 µM mark?
Marked response: yes

Exam item: Does the reported TGI for COc1ccc(NC2Oc3cc4c(cc3C(c3cc(OC)c(OC)c(OC)c3)C2C)OCO4)cc1 (stereo not given) fall at or above the 6 µM mark?
Marked response: no

Exam item: Does the reported TGI for `C[C@@H]1C[C@H](O)[C@]2(O)O[C@@H]3C[C@@]4(C=O)[C@@H](CC=C5[C@@H]4CC[C@]4(C)[C@@H](C6=CC(=O)OC6)CC[C@]54O)C[C@H]3O[C@@H]2O1` fall at or above the 6 µM mark?
Marked response: no

Exam item: Does the reported TGI for `Cc1c(C(=O)/C=C/c2cccc3ccccc23)[n+](=O)c2ccccc2n1[O-]` fall at or above the 6 µM mark?
Marked response: yes

Exam item: Does the reported TGI for CCCCCCCCCCCCCCC1OC(=O)c2ccccc21 (stereo not given) fall at or above the 6 µM mark?
Marked response: yes

Exam item: Does the reported TGI for `O=C(O)c1ccc(NS(=O)(=O)Cc2ccccc2)cc1` fall at or above the 6 µM mark?
Marked response: yes

Exam item: Does the reported TGI for `N#CC(C#N)=C1CCCS(=O)(=O)c2ccccc21` fall at or above the 6 µM mark?
Marked response: yes

Exam item: Does the reported TGI for `COc1cc2c(NCCCCCCO[N+](=O)[O-])ncnc2c(OC)c1OC` fall at or above the 6 µM mark?
Marked response: yes

Exam item: Does the reported TGI for `O=C1CC[C@H]2CNC(=O)C[C@H]2C1` fall at or above the 6 µM mark?
Marked response: yes

Exam item: Does the reported TGI for O=C1CC(c2ccc([N+](=O)[O-])cc2)C2(C(=O)NC(=S)NC2=O)C(c2ccc([N+](=O)[O-])cc2)C1 (stereo not given) fall at or above the 6 µM mark?
Marked response: yes
